The measured values listed here are drawn from patent US20230099293A1.

# Emax annotations
# Target or system: recombinant human Meningioma Expressed Antigen 5 (MGEA5), also referred to as O-GlcNAcase (OGA) (Homo sapiens)
# Construct: Full length OGA enzyme was purchased at OriGene (cat #TP322411); purchased OriGene TP322411
# Assay method text: OGA biochemical assay (inhibition of FM-GlcNAc hydrolysis, fluorescence)
# Study conditions: read-out: Enzymatic Emax (%)
# Description: The hydrolysis FM-GlcNAc (Marker Gene technologies, cat #M1485) results in the formation of β-D-N-glucosamineacetate and fluorescein. The fluorescence of the latter can be measured at excitation wavelength 485 nm and emission wavelength 538 nm. An increase in enzyme activity results in an increase in fluorescence signal. Full length OGA enzyme was purchased at OriGene (cat #TP322411). The enzyme was stored in 25 mM Tris.HCl, pH 7.3, 100 mM glycine, 10% glycerol at −20° C. […]
Answer with a number only, understood to be in %.

>>> experimental_value("CC(=O)n1nc(C)c(Nc2nccc3c2ncn3CC(=O)N(C)C)c1C [Compound 37]")
2
>>> experimental_value("CCCCn1ncc2c(Nc3c(Cl)cncc3Cl)nccc21 [Compound 67]")
94
>>> experimental_value("CC(C)c1cc(C(F)(F)F)cc(F)c1Nc1nccc2c1ncn2CC(=O)N(C)C [Compound 31]")
104
>>> experimental_value("Cc1cc(OC(F)(F)F)cc(Cl)c1Nc1nccc2c1ncn2CC(=O)N(C)C [Compound 16]")
101

Q. Name the recorded Emax for CN(C)C(=O)Cn1cnc2c(Nc3c(Cl)cc(OC(F)(F)F)cc3Cl)nccc21 [Compound 7] .
A. 102

----------
EC50 values by entry
# Target or system: hOGA (Homo sapiens)
# Construct: endogenous in cells; host or cells: HEK293 cells inducible for P301L mutant human Tau (isoform 2N4R)
# Assay method text: OGA cellular assay (ICC detection of O-GlcNAcylated proteins in HEK293 cells inducible for P301L mutant human Tau)
# Format: cell-based
# Study conditions: Cellular hOGA; pEC50, Table 5; HEK293 P301L Tau cells, 6 hours incubation, O-GlcNAcylation readout
Reply with just the number (in nM).

Field: example entries. Status: answers known.
>>> experimental_value("Cc1cc(C(F)(F)F)cc(C)c1Nc1nccc2c1ncn2CC(=O)N1CCC1 [Compound 50]")
933
>>> experimental_value("Cc1nn(-c2cccc(C#N)c2)c(C)c1Nc1nccc2c1ncn2CC(=O)N(C)C [Compound 33]")
479

Now, please, on to the next compound.
Q. Param item = Cc1cc(C(F)(F)F)cc(C)c1Nc1nccc2c1ncn2-c1ccc(F)cn1 [Compound 60] ; retrieve measured EC50.
A. 933

----------
Attribute: melting point
# value in °C; strip the unit string

Q. I would be grateful if you could share the reported melting point for CN(C)C(=O)Cn1cnc2c(Nc3c(Cl)cc(OC(F)(F)F)cc3Cl)nccc21 .
A. 201.5

Q. // lookup melting point for Cc1cc(C(F)(F)F)cc(F)c1Nc1nccc2c1ncn2CC(=O)N(C)C
A. 226.6

Q. Request the reported melting point associated with Cc1cc(OC(F)(F)F)cc(C)c1Nc1nccc2c1ncn2CC(=O)N(C)C
A. 186.5

Q. Query (compound): Cc1nn(-c2cccc(F)c2)c(C)c1Nc1nccc2c1ncn2CC(=O)N(C)C ; field requested: melting point
A. 181.5

Q. # lookup: melting point of Cc1cc(C(F)(F)F)cc(C)c1Nc1nccc2c1ncn2Cc1ccon1
A. 154.7

Q. Endpoint output: melting point of Cc1cc(C(F)(F)F)cc(C(C)C)c1Nc1nccc2c1ncn2CC(=O)N(C)C . Value?
A. 234.4

Q. Which melting point is listed for Cc1cc(Cl)cc(C)c1Nc1nccc2c1ncn2CC(=O)N(C)C ?
A. 209.8

Q. Which melting point value is on record for Cc1cc(C(F)(F)F)cc(F)c1Nc1nccc2c1ncn2CC(=O)N(C)C1CC1 ?
A. 219.8

----------
# Target or system: recombinant human Meningioma Expressed Antigen 5 (MGEA5), also referred to as O-GlcNAcase (OGA) (Homo sapiens)
# Construct: Full length OGA enzyme was purchased at OriGene (cat #TP322411); purchased OriGene TP322411
# Sequence (O60502 1-916): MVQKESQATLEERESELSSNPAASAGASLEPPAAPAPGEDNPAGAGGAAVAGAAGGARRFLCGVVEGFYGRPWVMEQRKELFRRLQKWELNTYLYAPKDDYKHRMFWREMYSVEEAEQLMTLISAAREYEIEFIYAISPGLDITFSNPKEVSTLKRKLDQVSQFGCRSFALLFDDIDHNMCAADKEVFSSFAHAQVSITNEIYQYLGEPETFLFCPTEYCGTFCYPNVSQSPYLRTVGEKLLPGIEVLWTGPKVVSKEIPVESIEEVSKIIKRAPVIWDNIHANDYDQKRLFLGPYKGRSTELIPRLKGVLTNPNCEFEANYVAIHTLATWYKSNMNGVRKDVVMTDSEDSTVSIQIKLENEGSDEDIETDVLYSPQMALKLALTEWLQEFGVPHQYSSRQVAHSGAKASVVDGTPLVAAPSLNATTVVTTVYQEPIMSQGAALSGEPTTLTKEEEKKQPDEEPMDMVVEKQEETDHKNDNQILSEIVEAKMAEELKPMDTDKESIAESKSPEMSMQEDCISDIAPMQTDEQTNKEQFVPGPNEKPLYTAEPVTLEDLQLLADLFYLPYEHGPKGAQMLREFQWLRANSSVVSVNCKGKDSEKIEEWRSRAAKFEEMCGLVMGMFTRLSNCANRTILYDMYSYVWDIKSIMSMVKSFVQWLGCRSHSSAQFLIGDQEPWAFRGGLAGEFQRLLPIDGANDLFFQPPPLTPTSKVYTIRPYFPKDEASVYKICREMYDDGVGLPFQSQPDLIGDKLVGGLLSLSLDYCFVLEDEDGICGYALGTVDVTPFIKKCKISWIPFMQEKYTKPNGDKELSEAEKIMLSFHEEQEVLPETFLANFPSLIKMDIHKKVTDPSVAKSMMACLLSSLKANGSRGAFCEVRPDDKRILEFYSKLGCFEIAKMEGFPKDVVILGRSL
# Assay method text: OGA biochemical assay (inhibition of FM-GlcNAc hydrolysis, fluorescence)
# Study conditions: Enzymatic hOGA; pIC50, Table 5; full length OGA 2 nM, FM-GlcNAc 100 uM, 6 h at room temperature
pIC50: −log10 of the molar value.
Label scheme for pIC50: lower than 7 is F, 7 and above is T.

Solved entries:
>>> class_assignment("Cc1cc(Cn2cnc3c(Nc4c(C)cc(C(F)(F)F)cc4C)nccc32)no1")
"T"
>>> class_assignment("CCCCn1ncc2c(Nc3c(Cl)cncc3Cl)nccc21")
"F"

API: the following record is the query input.
Q. pIC50 >= 7 for CN(C)C(=O)Cn1cnc2c(Nc3c(Cl)cc(F)cc3C(F)(F)F)nccc21 ?
A. T

----------
# Target or system: hOGA (Homo sapiens)
# Construct: endogenous in cells; host or cells: HEK293 cells inducible for P301L mutant human Tau (isoform 2N4R)
# Assay method text: OGA cellular assay (ICC detection of O-GlcNAcylated proteins in HEK293 cells inducible for P301L mutant human Tau)
# Type: cell-based
# Study conditions: Cellular hOGA; pEC50, Table 5; HEK293 P301L Tau cells, 6 hours incubation, O-GlcNAcylation readout
Measure name: pEC50
For clarity, pEC50 is expressed as the negative log10 of concentration in mol/L.

Q. Provide the documented pEC50 with hOGA (Homo sapiens) as the system for Cc1cc(Cl)cc(C)c1Nc1nccc2c1ncn2CC(=O)N(C)C
A. 6.68

Q. Request: pEC50, test system hOGA (Homo sapiens), entry CCc1cc(C(F)(F)F)cc(C)c1Nc1nccc2c1ncn2CC(=O)N(C)C
A. 7.00

Q. Lab request: please report pEC50 under test system hOGA (Homo sapiens) for CN(C)C(=O)Cn1cnc2c(Nc3c(Cl)cc(F)cc3Cl)nccc21
A. 6.91

Q. What reported pEC50 corresponds to Cc1cc(C(F)(F)F)cc(C)c1Nc1ncc(C)c2c1cnn2CC(=O)N(C)C on hOGA (Homo sapiens)?
A. 6.27

Q. Form: Entry = CN(C)C(=O)Cn1cnc2c(Nc3c(Cl)cc(F)cc3C(F)(F)F)nccc21 | System = hOGA (Homo sapiens) | pEC50 = ____
A. 6.40

----------
Measure name: melting point (°C)
# output: bare number, implied unit °C

Solved entries:
>>> experimental_value("CN(C)C(=O)Cn1cnc2c(Nc3c(Cl)cc(F)cc3Cl)nccc21 [Compound 21]")
243.4
>>> experimental_value("Cc1cc(F)cc(C)c1Nc1nccc2c1ncn2CC(=O)N(C)C [Compound 20]")
216.7
>>> experimental_value("Cc1cc(Cn2cnc3c(Nc4c(C)cc(C(F)(F)F)cc4C)nccc32)no1 [Compound 80]")
164.7
>>> experimental_value("CCCCn1cnc2c(Nc3c(C)cc(F)cc3C)nccc21 [Compound 57]")
184.45
>>> experimental_value("Cc1nccc(C(F)F)c1Nc1nccc2c1ncn2CC(=O)N(C)C [Compound 27]")
216.6
>>> experimental_value("Cc1cc(C(F)(F)F)cc(C)c1Nc1nccc2c1ncn2-c1ncc(F)cn1 [Compound 69]")
198.2
>>> experimental_value("Cc1cc(C#N)cc(C)c1Nc1nccc2c1ncn2CC(=O)N(C)C [Compound 46]")
263.4
>>> experimental_value("COCCn1cnc2c(Nc3c(C)cc(C(F)(F)F)cc3C)nccc21 [Compound 74]")
161.5

Q. Need melting point, item Cc1cc(C(F)(F)F)cc(C)c1Nc1nccc2c1ncn2CCC(=O)N(C)C [Compound 70]
A. 194.9

Q. # query: melting point of entry CCCCn1ncc2c(Nc3c(Cl)cccc3Cl)nccc21 [Compound 66]
A. 144.7

Q. Field request: melting point | item: Cc1cc(C(F)(F)F)cc(C)c1Nc1nccc2c1ncn2CC(N)=O [Compound 5]
A. 266.8

Q. Return reported melting point; argument: Cc1cc(C)cc(-n2nc(C)c(Nc3nccc4c3ncn4CC(=O)N(C)C)c2C)c1 [Compound 43]
A. 154.7

Q. // query melting point value for entry Cc1cc(C(F)(F)F)cc(C)c1Nc1ncc(C)c2c1ncn2CC(=O)N(C)C [Compound 6]
A. 238.3
